# System: biotinyl-Ile-oxazolone
# Procedure summary: self-aminoacylation, catalytic enhancement (BIO) (fold over background); higher = more active; k-Seq, kA / k0A0; sequences stand for … in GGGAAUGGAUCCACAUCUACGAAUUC…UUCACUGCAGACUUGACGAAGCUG
Fewer inactive variants are shown than the library holds.
Give Satisfied when the value for self-aminoacylation is at least 3. Give Not satisfied when it is less.

>  <Seq>
GCACACUUCAAGCAAUCGGCC [Fam1B.1 aminoacylation ribozyme variant]

>  <Measured on>
biotinyl-Ile-oxazolone

>  <Assigned label>
Satisfied

$$$$
>  <Seq>
AUCCACCUAGUUCAUCGGGUG [Fam2.2 aminoacylation ribozyme variant]

>  <Measured on>
biotinyl-Ile-oxazolone

>  <Assigned label>
Not satisfied

$$$$
>  <Seq>
CCACACUUAAAGCGAUCGGUC [Fam1B.1 aminoacylation ribozyme variant]

>  <Measured on>
biotinyl-Ile-oxazolone

>  <Assigned label>
Not satisfied

$$$$

Query string: Given AUUGACCUAGAUCAUCGGGUG [Fam2.2 aminoacylation ribozyme variant] , state whether its self-aminoacylation is at least 3.
Result string: Not satisfied

Query string: Another sequence: CUUCUACAAACAAUCGGUCUG [Fam1A.1 aminoacylation ribozyme variant]
Result string: Not satisfied

Query string: Query UAGUUUUCUAAUAGUCGCAAG [Fam3.1 aminoacylation ribozyme variant] next
Result string: Not satisfied

Query string: Try this sequence too: AUUCAUCUCGGUCAUCGGGUG [Fam2.2 aminoacylation ribozyme variant]
Result string: Satisfied

Query string: Now consider AUUUCCCUGGUCAUCUAGUGA [Fam2.1 aminoacylation ribozyme variant] .
Result string: Satisfied

Query string: Try CCACACUUCAUGCAAUCGGUA [Fam1B.1 aminoacylation ribozyme variant] next.
Result string: Not satisfied

Query string: Consider next the sequence AUUAGCCUGGUCAACGAGUGA [Fam2.1 aminoacylation ribozyme variant] in the same way.
Result string: Satisfied

Query string: Record: AUUACCCUUGUCAUCAAGUGA [Fam2.1 aminoacylation ribozyme variant]
Result string: Not satisfied

Query string: Moving on to the next sequence: ACUACCCUGGUCAUCGACUGA [Fam2.1 aminoacylation ribozyme variant]
Result string: Not satisfied

Query string: Also check CUACUGCAACCAAUCGGUCUG [Fam1A.1 aminoacylation ribozyme variant]
Result string: Not satisfied

Query string: Now consider AAGUUUGCUAGUAGUUGCAAG [Fam3.1 aminoacylation ribozyme variant] and answer again.
Result string: Not satisfied

Query string: Lookup AUUCACCUAGGUCCUAGGGUG [Fam2.2 aminoacylation ribozyme variant]
Result string: Not satisfied

Query string: Request: AUUCACCAAGGUCAUCGCGUG [Fam2.2 aminoacylation ribozyme variant]
Result string: Satisfied

Query string: Input AUGGCCCUGGUCAUCGAGUGA [Fam2.1 aminoacylation ribozyme variant]
Result string: Satisfied

Query string: Same thing, different sequence: AUUACCCUGGUCAUCGAGUGG [Fam2.1 aminoacylation ribozyme variant]
Result string: Satisfied

Query string: // same read-out, input: AAGAUUGCUAAUAGUCGCUAG [Fam3.1 aminoacylation ribozyme variant]
Result string: Not satisfied

Query string: What about this sequence? CCACACUUUAAACAAUCGGUC [Fam1B.1 aminoacylation ribozyme variant]
Result string: Not satisfied

Query string: Consider next the sequence AUUCACCUCGAUCAUCGGGUG [Fam2.2 aminoacylation ribozyme variant] in the same way.
Result string: Satisfied

Query string: # repeat for AUUCACCUACGUCAUCGGGCG [Fam2.2 aminoacylation ribozyme variant]
Result string: Not satisfied

Query string: Similarly, AAAUUUGCUAAUAGUCGCGAG [Fam3.1 aminoacylation ribozyme variant] ?
Result string: Not satisfied

Query string: # iterate: CCACACUUCAAGCAGACGGUC [Fam1B.1 aminoacylation ribozyme variant]
Result string: Not satisfied

Query string: What would you report for CCACUUCAAACAAUCGGUCUA [Fam1A.1 aminoacylation ribozyme variant] ?
Result string: Not satisfied
